Listed here: items and their measured pIC50.
- Target Desc: ferroportin (Homo sapiens)
- Sequence (Q9NP59 1-571): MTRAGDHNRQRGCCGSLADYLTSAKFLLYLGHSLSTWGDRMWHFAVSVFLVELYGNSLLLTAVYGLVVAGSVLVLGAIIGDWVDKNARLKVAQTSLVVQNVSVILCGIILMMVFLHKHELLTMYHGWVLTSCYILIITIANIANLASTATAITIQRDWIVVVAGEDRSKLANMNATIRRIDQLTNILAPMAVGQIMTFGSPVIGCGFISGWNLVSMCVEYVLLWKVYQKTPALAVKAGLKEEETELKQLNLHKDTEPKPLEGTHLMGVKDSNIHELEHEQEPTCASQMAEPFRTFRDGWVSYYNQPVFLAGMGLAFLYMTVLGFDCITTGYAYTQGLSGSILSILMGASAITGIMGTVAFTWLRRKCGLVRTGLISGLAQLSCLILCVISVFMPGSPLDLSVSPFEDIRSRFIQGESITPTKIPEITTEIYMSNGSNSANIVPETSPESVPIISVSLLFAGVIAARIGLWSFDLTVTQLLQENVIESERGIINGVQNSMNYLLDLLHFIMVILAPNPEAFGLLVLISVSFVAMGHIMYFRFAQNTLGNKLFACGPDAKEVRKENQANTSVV
- Test Summary: T47D cell-based ferroportin internalization assay in presence of mouse serum albumin (MSA)
- Parameters: a human breast carcinoma adherent cell line which endogenously expresses ferroportin; host or cells: T47D
- Stated Conditions: T47D cells, 0.5% mouse serum albumin, 1 hr incubation
pIC50: −log10 of the molar value. Starred links: 1 amine or outer side, 2 acyl side, 3 side chain; linkers in the order of their positions; H or OH if unused. Positions of bridges follow the written chain, without caps; N, C: chain ends. Non-standard residues stand in square brackets, D forms with d. Residues, ends and D or L forms follow the SMILES beside them. Groups on a side chain read outwards from the residue. *: point of attachment. C18 diacid = O=C(O)CCCCCCCCCCCCCCCCC(=O)*; Dip = N[C@H](C(=O)O)C(c1ccccc1)c1ccccc1; γGlu = O=C(O)[C@H](CCC(=O)[*:2])N[*:1]; β3hF = N[C@H](CC(=O)O)Cc1ccccc1; Isovaleryl = CC(C)CC(=O)*; Dap = NC[C@H](N)C(=O)O; AEEA = NCCOCCOCC(=O)O

Quick check: pIC50 of CC(C)CC(=O)N[C@@H](CCC(=O)O)C(=O)N[C@H](C(=O)N[C@@H](Cc1c[nH]cn1)C(=O)N[C@H](C(=O)N1CCC[C@H]1C(=O)N[C@H]1CSSC[C@@H](C(=O)N[C@@H](CCCCNC(=O)COCCOCCNC(=O)COCCOCCNC(=O)[C@H](CN)NC(=O)CCCCCCCCCCCCCCCCC(=O)O)C(=O)N[C@H](CC(=O)N[C@H](CCCCN)C(N)=O)Cc2ccccc2)NC1=O)C(c1ccccc1)c1ccccc1)[C@@H](C)O [Compd 41] (Isovaleryl-ETH[Dip]PCCK([AEEA-AEEA-Dap-C18 diacid])[β3hF][dK]-NH2; disulfide 6-7) ?
7.00 to 8.00

Quick check: pIC50 of CC[C@H](C)[C@@H]1NC(=O)[C@@H](NC(=O)[C@@H]2CCCN2C(=O)[C@@H](NC(=O)[C@H](Cc2c[nH]cn2)NC(=O)[C@@H](NC(=O)[C@H](CCC(=O)O)NC(=O)CC(C)C)[C@@H](C)O)C(c2ccccc2)c2ccccc2)CSSC[C@@H](C(N)=O)NC(=O)C[C@H](Cc2ccccc2)NC(=O)[C@H](CCCCNC(=O)COCCOCCNC(=O)COCCOCCNC(=O)CC[C@H](NC(=O)CCCCCCCCCCCCCCCCC(=O)O)C(=O)O)NC1=O [Compd 32] (Isovaleryl-ETH[Dip]PCIK([AEEA-AEEA-γGlu-C18 diacid])[β3hF]C-NH2; disulfide 6-10) ?
6.30 to 7.00

----------
- Target Desc: UniProtKB Q9NP59
- Test Summary: FPN activity assay: ferroportin-GFP internalization/degradation in HEK293 cells
- Assay type: cell-based
- Set-up: expressed in transfected cells
- Stated Conditions: ferroportin-GFP internalization/degradation, HEK293 cells; Table 6E; read-out: FPN IC50
- Experimental: Following internalization, the ferroporin protein is degraded. A retro inverse peptide is a peptide with a reversed sequence in all D amino acids. An example is that Hy-Glu-Thr-His-NH2 becomes Hy-DHis-DThr-DGlu-NH2. The EC50 of these reference compounds for ferroportin internalization/degradation was determined according to the FPN activity assay described above. These peptides served as control standards.
Positions of bridges follow the written chain, without caps; N, C: chain ends. Non-standard residues stand in square brackets, D forms with d. Residues, ends and D or L forms follow the SMILES beside them. Groups on a side chain read outwards from the residue. *: point of attachment. C18 diacid = O=C(O)CCCCCCCCCCCCCCCCC(=O)*; Dip = N[C@H](C(=O)O)C(c1ccccc1)c1ccccc1; Palmitoyl = CCCCCCCCCCCCCCCC(=O)*; β3hF = N[C@H](CC(=O)O)Cc1ccccc1; NMeK = CN[C@@H](CCCCN)C(=O)O; Isovaleryl = CC(C)CC(=O)*; hCys = N[C@@H](CCS)C(=O)O; Dap = NC[C@H](N)C(=O)O; AEEA = NCCOCCOCC(=O)O; Ahx = NCCCCCC(=O)O
Listed here: items and their measured DC50.

Molecule	DC50
CCCCCCCCCCCCCCCC(=O)NCCCCCC(=O)NCCCC[C@@H](C(=O)N[C@H](CC(=O)N[C@H](CCCCN)C(N)=O)Cc1ccccc1)N(C)C(=O)[C@@H]1CSSC[C@H](NC(=O)[C@@H]2CCCN2C(=O)[C@@H](NC(=O)[C@H](Cc2cnc[nH]2)NC(=O)[C@@H](NC(=O)[C@H](CCC(=O)OC)NC(=O)CC(C)C)[C@@H](C)O)C(c2ccccc2)c2ccccc2)C(=O)N1 [compound 307] (Isovaleryl-E(OMe)TH[Dip]PCC[NMeK]([Ahx-Palmitoyl])[β3hF][dK]-NH2; disulfide 6-7)	10 to 100 nM

Shift focus to the following entry.
Notebook entry, UniProtKB Q9NP59 assay: DC50 of CC(C)CC(=O)N[C@@H](CCC(=O)O)C(=O)N[C@H](C(=O)N[C@@H](Cc1c[nH]cn1)C(=O)N[C@H](C(=O)N1CCC[C@H]1C(=O)N[C@H]1CCSSCC[C@@H](C(=O)N[C@@H](CCCCNC(=O)COCCOCCNC(=O)COCCOCCNC(=O)[C@H](CN)NC(=O)CCCCCCCCCCCCCCCCC(=O)O)C(=O)N[C@H](CC(=O)N[C@H](CCCCN)C(N)=O)Cc2ccccc2)NC1=O)C(c1ccccc1)c1ccccc1)[C@@H](C)O [compound 268] (Isovaleryl-ETH[Dip]P[hCys][hCys]K([AEEA-AEEA-Dap-C18 diacid])[β3hF][dK]-NH2; disulfide 6-7) = ?
10 to 100 nM

----------
- Target Desc: ferroportin (Homo sapiens)
- Test Summary: T47D cell-based ferroportin internalization assay in presence of mouse serum albumin (MSA)
- Design: a human breast carcinoma adherent cell line which endogenously expresses ferroportin; host or cells: T47D
- Stated Conditions: Table 6E; T47D internalization assay with MSA
Positions of bridges follow the written chain, without caps; N, C: chain ends. Non-standard residues stand in square brackets, D forms with d. Residues, ends and D or L forms follow the SMILES beside them. Groups on a side chain read outwards from the residue. ξ: configuration not given here. *: point of attachment. X13 = COC(=O)CCCCCCCCCCCCCCCCC(=O)NCC[N+](C)(C)CC(=O)*; X5 = CCCCCCCCCCCCCCCC(=O)NCC[N+](C)(C)CC(=O)*; C18 diacid = O=C(O)CCCCCCCCCCCCCCCCC(=O)*; Dip = N[C@H](C(=O)O)C(c1ccccc1)c1ccccc1; ξDip = NC(C(=O)O)C(c1ccccc1)c1ccccc1; Pro(3R-OH) = O=C(O)[C@H]1NCC[C@H]1O; NMeK = CN[C@@H](CCCCN)C(=O)O; Isovaleryl = CC(C)CC(=O)*; Dap = NC[C@H](N)C(=O)O; Ahx = NCCCCCC(=O)O
Reported Metric: IC50

Illustrative cases are given below, each with its answer.
Compound	IC50
CCCCCCCCCCCCCCCC(=O)NCC[N+](C)(C)CC(=O)NCCCC[C@@H](C(=O)N[C@H](C(=O)N[C@H](CCCCN)C(N)=O)C(c1ccccc1)c1ccccc1)N(C)C(=O)[C@@H]1CSSC[C@H](NC(=O)[C@@H]2CCCN2C(=O)[C@@H](NC(=O)[C@H](Cc2cnc[nH]2)NC(=O)[C@@H]2[C@H](O)CCN2C(=O)[C@H](CCC(=O)O)NC(=O)CC(C)C)C(c2ccccc2)c2ccccc2)C(=O)N1 [compound 152] (Isovaleryl-E[Pro(3R-OH)]H[Dip]PCC[NMeK](X5)[Dip][dK]-NH2; disulfide 6-7)	1 to 10 nM
COC(=O)CC[C@H](NC(=O)CC(C)C)C(=O)N[C@H](C(=O)N[C@@H](Cc1c[nH]cn1)C(=O)N[C@H](C(=O)N1CCC[C@H]1C(=O)N[C@H]1CSSC[C@@H](C(=O)N(C)[C@@H](CCCCNC(=O)[C@H](CN)NC(=O)CCCCCCCCCCCCCCCCC(=O)O)C(=O)N[C@H](C(=O)N[C@H](CCCCN)C(N)=O)C(c2ccccc2)c2ccccc2)NC1=O)C(c1ccccc1)c1ccccc1)[C@@H](C)O [compound 206] (Isovaleryl-E(OMe)TH[Dip]PCC[NMeK]([Dap-C18 diacid])[Dip][dK]-NH2; disulfide 6-7)	10 to 100 nM
COC(=O)CC[C@H](NC(=O)CC(C)C)C(=O)N[C@H](C(=O)N[C@@H](Cc1c[nH]cn1)C(=O)N[C@H](C(=O)N1CCC[C@H]1C(=O)N[C@H]1CSSC[C@@H](C(=O)N(C)[C@@H](CCCCNC(=O)CCCCCNC(=O)[C@H](CN)NC(=O)CCCCCCCCCCCCCCCCC(=O)O)C(=O)N[C@H](C(=O)N[C@H](CCCCN)C(N)=O)C(c2ccccc2)c2ccccc2)NC1=O)C(c1ccccc1)c1ccccc1)[C@@H](C)O [compound 207] (Isovaleryl-E(OMe)TH[Dip]PCC[NMeK]([Ahx-Dap-C18 diacid])[Dip][dK]-NH2; disulfide 6-7)	10 to 100 nM

Shift focus to the following entry.
Notebook entry, ferroportin (Homo sapiens) assay: IC50 of COC(=O)CCCCCCCCCCCCCCCCC(=O)NCC[N+](C)(C)CC(=O)NCCCCCC(=O)NCCCC[C@H]1C(=O)NC(C(c2ccccc2)c2ccccc2)C(=O)N[C@@H](C(N)=O)CCCCNC(=O)CC[C@H](NC(=O)CC(C)C)C(=O)N[C@@H]([C@@H](C)O)C(=O)N[C@@H](Cc2c[nH]cn2)C(=O)N[C@@H](C(c2ccccc2)c2ccccc2)C(=O)N2CCC[C@H]2C(=O)N[C@H]2CSSC[C@H](NC2=O)C(=O)N1C (stereo partly shown) [compound 160] (Isovaleryl-ETH[Dip]PCC[NMeK]([Ahx-X13])[ξDip][dK]-NH2; lactam 1-10; disulfide 6-7) = ?
10 to 100 nM
